# assayedTarget: T1, VSL12 peptide (also: biotin (site not given here))
# T1 construct: Biotinylated for immobilisation in SPR; source: synthetic peptide (University of Pittsburgh Peptide Synthesis Core)
# T1 peptide: VSLARRPLPPLP
# assayOverview: SPR; same runs as a1 (biotinylated VSL12 on a streptavidin chip, 25°C, HBS-EP); equilibrium responses against analyte concentration, steady state model
# measurementConditions: both partners purified
Ends that are not written are not given here.
readout: Kd (nM)
Just the number please, in nM, no unit attached.

Please look up its Kd: Lyn SH3 domain (domain or fragment) EQGDIVVALYPYDGIHPDDLSFKKGEKMKVLEEHGEWWKAKSLLTKKEGFIPSNYVAKLNT
562

meta.source: paper PMC4140816
